Tested on: wheat germ agglutinin (Triticum aestivum), Alexa647-labelled
assay-comment: wheat germ agglutinin binders on compound microarrays, profiling panel, artefact control for SMM control-protein annotation, biochemical, small-molecule microarray, 635/667 nm fluorescence (AID 1140);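 note: score merges 667 nm feature emission with signal to noise over triplicate slides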
run-parameters: WGA-A647 binding, 635 nm fluorescence, higher = more signal
Assign Y whenever composite z-score does not fall below 0.8; assign N whenever it does.

Problem: Is the recorded value of composite z-score equal to or greater than 0.8 for this compound? COc1cc2c(cc1O)C(C)N(Cc1ccc([N+](=O)[O-])o1)CC2 (stereo unspecified)
Solution: Y

----------
assay-target: Torsin-1A-interacting protein 1 (Homo sapiens) (UniProt Q5JTV8)
Sequence (Q5JTV8 whole entry, looked up): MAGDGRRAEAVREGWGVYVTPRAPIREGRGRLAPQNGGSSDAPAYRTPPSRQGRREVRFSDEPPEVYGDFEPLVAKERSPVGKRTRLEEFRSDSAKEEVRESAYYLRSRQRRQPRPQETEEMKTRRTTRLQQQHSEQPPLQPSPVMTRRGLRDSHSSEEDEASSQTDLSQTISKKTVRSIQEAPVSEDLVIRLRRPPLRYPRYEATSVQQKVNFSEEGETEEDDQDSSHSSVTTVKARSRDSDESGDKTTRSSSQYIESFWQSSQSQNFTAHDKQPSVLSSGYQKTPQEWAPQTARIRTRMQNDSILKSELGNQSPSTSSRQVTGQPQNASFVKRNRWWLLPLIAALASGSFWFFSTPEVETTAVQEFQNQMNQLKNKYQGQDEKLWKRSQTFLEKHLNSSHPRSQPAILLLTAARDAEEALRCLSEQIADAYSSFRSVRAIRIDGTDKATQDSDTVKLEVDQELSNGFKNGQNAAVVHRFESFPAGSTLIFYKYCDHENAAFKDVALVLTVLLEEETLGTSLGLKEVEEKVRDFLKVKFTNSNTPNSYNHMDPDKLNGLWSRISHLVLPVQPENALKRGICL
assay-comment: LAP1 binders from COS7 cell lysate, primary screen, small-molecule microarray, 635/667 nm fluorescence (AID 1116)
run-parameters: COS7-hLAP1 lysate binding, 635 nm fluorescence, higher = more signal
attribute-measured: composite z-score
Numbers only.

Problem: Hello, please tell me recorded composite z-score for this one: CCOc1cc(C(O)C2C=CC3C(=O)N(c4ccccc4)C(=O)C3N2Nc2ccc(C#N)cc2)ccc1O (stereo not given)
Solution: 0.562

# per-item lookup of composite z-score; items listed below
1. [N-]=[N+]=Nc1ccccc1C[C@]1(C(=O)N2CCOCC2)N=C(c2ccc(OCCCO)cc2)O[C@H]1c1ccccc1
2. Cc1ccc(S[C@]2(C(=O)NCC(F)(F)F)CC(=O)N(Cc3ccccc3)[C@@H]2c2ccc(CO)cc2I)cc1
3. COCCOC(=O)N1C(=O)[C@@]2(c3cc(C#CCC(C(=O)OC)C(=O)OC)ccc31)[C@H](C(=O)N1CCc3cc(OC)c(OC)cc3C1)[C@H]1C(=O)O[C@H](c3ccccc3)[C@H](c3ccccc3)N1[C@@H]2c1ccc(OCCO)cc1
4. COCCOC(=O)N1C(=O)[C@@]2(c3cc(C#CCNC(N)=O)ccc31)[C@H](C(=O)N1CCc3cc(OC)c(OC)cc3C1)[C@H]1C(=O)O[C@H](c3ccccc3)[C@H](c3ccccc3)N1[C@@H]2c1ccccc1OCCO

Solution:
1: 1.18; 2: 0.349; 3: 0.0568; 4: 1.03

----------
assay-comment: Plasmodium falciparum growth inhibition, primary screen, strain 3D7, DAPI fluorescence, 100 nL (AID 1184);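 note: parasites grown inside human red blood cells in medium with human serum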
run-parameters: P. falciparum 3D7 growth, 3 d, higher = more signal
attribute-measured: z-score

Problem: Respond only with z-score recorded for CO[C@]12C=C(Br)[C@@H](C[C@@H]1c1cccc(C)c1)[C@@]1(CO1)C2=O
Solution: 0.267

Problem: For CN1C(=O)C2C=CC(C(O)c3ccccn3)N(N(c3ccccc3)c3ccccc3)C2C1=O (configuration not stated) , write its z-score.
Solution: -0.215

Problem: Read the entry COC(=O)[C@@]1(Cc2ccc(OC)cc2)[C@H]2c3cc(C(=O)N(C)C)n(C[C@H](O)CO)c3C[C@H]2CN1C(=O)c1ccccc1 and write its reported z-score.
Solution: -1.74

Problem: Identify the reported z-score for the following entry. C=CCNC(=O)[C@@H]1[C@H]2C(=O)O[C@H](c3ccccc3)[C@H](c3ccccc3)N2[C@H](c2ccc(O)cc2)[C@@]12C(=O)N(C(=O)OCCOC)c1ccc(C#CC3(O)CCCCCC3)cc12
Solution: 0.359

Look at each compound and report its z-score.
1. [N-]=[N+]=NCc1ccccc1[C@@H]1OC(c2ccc(OCCCO)cc2)=N[C@]1(CCS(=O)(=O)c1ccccc1)C(=O)NCC(O)CO (some centres not stated)
2. COC(=O)c1c2oc(c1C(=O)OC)C(=O)N(Cc1ccccc1)Cc1cn(nn1)C[C@H](Cc1ccccc1)NC(=O)N[C@H](CO)CC2
3. CC(C)N1C(=O)C[C@@](C(=O)NCCCN(C)C)(c2ccc([N+](=O)[O-])cc2)[C@H]1c1ccc(CO)cc1
4. CCCC[C@@H](O)C1=C(COc2ccccc2)C[C@H]2C(=O)N(C)C(=O)[C@H]2[C@H]1CO
5. CCCCCCc1nc(-c2cc(C)c(OC)c(C)c2)c(C)c2c1[Si](C(C)C)(C(C)C)OC2

Solution:
1. -2.26
2. -0.886
3. 0.0784
4. -0.764
5. -2.23

From: PubChem BioAssay
